# Test system: OVCAR-4 ovarian
# protocol.text: NCI-60 one-dose screen, 48 h (100 = growth as untreated, 0 = no growth, -100 = all killed)
# reported.conditions: 10 µM unless noted
Compounds without any hit were thinned out: in the full panel of roughly 83,000, 20% have a hit.
Kindly note that classification relies on growth with these boundaries: low class = under 10%, middle class = from 10% up to 60%, high class = 60% and over

- O=C(/C=C/c1ccc(-c2ccccc2)cc1)c1nc2ccccc2n1Cc1ccc(Br)cc1: middle class
- C[C@H](Nc1nc(NCCc2ccccc2)nc2ccccc12)c1ccccc1: low class
- Cc1ccc(-c2nc(C#N)c(S(=O)(=O)N3CCN(S(=O)(=O)c4ccc(Cl)cc4)CC3)o2)cc1: high class
- COc1ccc2[nH]cc(-c3nnc(N)nc3-c3c[nH]c4ncc(Br)cc34)c2c1: high class
- CN(C)c1nc(NCCNS(=O)(=O)c2ccc(C(=O)/C=C/c3ccc(C(F)(F)F)cc3)cc2)nc(Nc2ccc(F)cc2)n1: middle class
- CSc1ccc(C(=O)Nc2ccc3nnn(/C(C#N)=C/c4ccccn4)c3c2)cc1: middle class
- C=C1CCC2C3(C)COC(c4cccc(F)c4)OC3CCC2(C)C1C/C=C1/C(=O)OCC1O (configuration not stated): low class
- CCN(CC)c1ccnc(CNCCSC(c2ccccc2)(c2ccccc2)c2ccc(OC)cc2)c1: middle class
- OCC1(CCCc2ccccc2)CCCN(c2nccc3ccccc23)C1 (configuration not stated): middle class
- O=C(N/N=C/c1ccc(-c2ccc(O)cc2)s1)c1[nH]c2ccc(Br)cc2c1-c1ccccc1: middle class
- CSc1ccccc1NC(=O)c1ccc2nnn(/C(C#N)=C/c3ccccn3)c2c1: low class
- CCOC(=O)C1=C(N)N(c2ccccc2)C2=C(C(=O)CC(C)(C)C2)C1c1ccc([N+](=O)[O-])cc1 (configuration not stated): high class
- O=C(CSc1nc2ccccc2c(=O)[nH]1)NCCN1CCCCC1: high class
- N=C1N=C(SCc2nc3ccccc3[nH]2)NC(=O)/C1=C/c1ccc(Cl)cc1: high class
- O=C(/C=C/c1ccc(-c2ccccc2)cc1)c1nc2ccccc2n1Cc1ccc(F)cc1: middle class
- COc1ccc2c(c1)c(-c1cc3nc(-c4cn(C)c5ncccc45)cc(N)n3n1)cn2C: low class
- COc1ccc2oc3c4[nH]c5ccccc5c4c4c(c3c2c1)C(=O)N(C(=O)OC(C)(C)C)C4=O: low class
- CC(=O)Oc1ccc(/C=C/C(=O)N[C@@H](Cc2ccccc2)C(O)C(=O)NCc2ccccc2)cc1OC(C)=O (some centres not stated): high class
- COc1cc2c3c(n(CCCN4CCC[C@@H]4CO)c(=O)c2cc1OC)-c1cc2c(cc1C3=O)OCO2: low class
- Cn1cc(-c2nnc(N)nc2-c2c[nH]c3ccc(Br)cc23)c2cc(Br)cnc21: middle class
- CC(=O)c1c(N)c(C#N)cn1-c1ccc(Cl)cc1Cl: high class
- C=C1CC[C@@H]2[C@]3(C)COC(c4cn[nH]c4-c4ccc(Br)cc4)O[C@@H]3CC[C@@]2(C)[C@@H]1C/C=C1/C(=O)OCC1O (some centres not stated): low class
- CNC(=O)c1cccc(NC(=O)c2ccc3c(c2)nnn3/C(C#N)=C/c2ccccn2)c1: middle class
- N#Cc1c(NCc2ccccc2)n[nH]c1Nc1ccccc1: middle class
- CCOP(=O)(OCCCl)c1nc(-c2ccc(C)cc2)oc1NCc1ccccc1 (configuration not stated): high class
- Cc1cnc(C(=O)NNc2nc3cc(F)ccc3n3c(C(=O)N4CC5CC(C4)N5)ccc23)cn1: middle class
- COc1ccc2[nH]cc(-c3cc(N)n4nc(-c5cn(C)c6ccccc56)cc4n3)c2c1: low class
- COc1cc2c(c(OC)c1OC)C(=O)CC(c1cccc(NC(=O)c3cc(NC(=O)[C@H](C)N)ccc3Cl)c1)O2 (some centres not stated): middle class
- COc1ccc(NC(=O)Cn2c(/C=C/c3cccc([N+](=O)[O-])c3)nc3ccccc3c2=O)cc1: middle class
- O=C(N1c2ccccc2Sc2ccccc21)n1ccc2cccnc21: high class
- CSc1ccccc1NC(=O)c1ccc2nn(/C(C#N)=C/c3ccccn3)nc2c1: low class
- Cn1cc(-c2cc3nc(-c4cn(C)c5ncc(Br)cc45)cc(N)n3n2)c2cc(Cl)ccc21: low class
- N#Cc1c(-c2cccnc2)cc(-c2ccc3ccccc3c2)[nH]c1=O: high class
- C#CCOc1ccc(/C=N/Nc2nc(-c3ccc(Cl)cc3)cs2)cc1OC: middle class
